system: MDM2 (Homo sapiens, UniProt Q00987)
Sequence (Q00987 whole entry): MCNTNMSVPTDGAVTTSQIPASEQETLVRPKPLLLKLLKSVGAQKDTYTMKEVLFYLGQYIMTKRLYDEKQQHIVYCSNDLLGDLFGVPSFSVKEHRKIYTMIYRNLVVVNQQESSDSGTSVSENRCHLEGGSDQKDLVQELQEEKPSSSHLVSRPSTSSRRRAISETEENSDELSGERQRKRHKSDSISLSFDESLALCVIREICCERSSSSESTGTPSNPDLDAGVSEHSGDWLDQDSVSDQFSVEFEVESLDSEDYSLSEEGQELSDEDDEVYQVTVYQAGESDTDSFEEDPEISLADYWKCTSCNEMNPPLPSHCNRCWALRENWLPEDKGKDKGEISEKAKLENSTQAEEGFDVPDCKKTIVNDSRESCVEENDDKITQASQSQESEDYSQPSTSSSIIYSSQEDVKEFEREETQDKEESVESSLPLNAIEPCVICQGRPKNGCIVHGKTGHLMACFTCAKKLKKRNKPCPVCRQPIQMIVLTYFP
methodNotes: MDM2 binding screen of Libraries 3 and 4: displacement of fluorescent probe F-M8 at 750 nM macrocycle
cond: Panel b, Library 3: 63 scaffolds combinatorially acylated with 15 carboxylic acids at 30 picomole scale; displacement of fluorescent peptide probe; macrocycle 750 nM
experimentalEndpoint: fraction of fluorescent probe displaced
Reply: number alone, nothing else.

Task: Could you tell me which fraction of fluorescent probe displaced is on file for O=C(CCS(=O)(=O)c1ccccc1)NCCN1CC(=O)N[C@@H](Cc2ccc3ccccc3c2)C(=O)NCCSSCCC(=O)N2CCC[C@@H](C2)C1=O [X-Nip-N-Aeg-2-Nal + Acid 114] ?
Result: 0.015

Task: Item O=C(/C=C/c1ccc(OCc2ccccc2)cc1)NC[C@H]1NC(=O)[C@@H]2CN(CCO2)C(=O)CCSSCCNC(=O)[C@@H](Cc2c[nH]c3ccccc23)NC1=O [X-Cop-D-Dap-D-Trp + Acid 110] has what recorded fraction of fluorescent probe displaced?
Result: 0.015

Task: Give its fraction of fluorescent probe displaced value. Item: O=C(/C=C/c1ccc2ccccc2c1)NCCN1CC(=O)N[C@@H](Cc2cccc3ccccc23)C(=O)NCCSSCCC(=O)N2CCC[C@@H](C2)C1=O [X-Nip-N-Aeg-1-NaI + Acid 112]
Result: 0.015

---

system: MDM2 (Homo sapiens, UniProt Q00987)
methodNotes: MDM2 binding screen: displacement of fluorescent p53 peptide probe FP53 (fluorescence polarization)
cond: Acid 91; initial screen; crude macrocycle reactions
Numbered stars: 1 amine (or outer) side, 2 acyl side, 3 side chain; on linkers, the order of the positions; unused ones are H or OH. Bridge positions count the residues as written; N and C are the ends. Square brackets hold non-standard residues; d marks the D form. Peptide text beside a SMILES is read from it. * marks the point of attachment. Cysteamide = C(CS[*:3])N[*:1]; X1 = O=C(/C=C/c1ccccc1)*; Api = NC1(C(=O)O)CCNCC1; X2 = O=C(C=Cc1ccccc1)*; Mpa = O=C(O)CCS
experimentalEndpoint: fraction fluorescent probe displaced, Screen
Please give only the number in your answer, with no unit.

Task: Any idea what fraction fluorescent probe displaced, Screen was measured for O=C1CCSSCCNC(=O)C2CCCN2C(=O)C2(CCN(C(=O)C=Cc3ccccc3)CC2)NC(=O)C(Cc2ccccc2)N1 (centres unmarked) [X F D6 B1 Acid 91] ([Mpa]F[Api](X2)P-Cysteamide; disulfide 1-C; configuration not given here) ?
Result: -0.08

Task: State the recorded fraction fluorescent probe displaced, Screen for this entry: O=C1NC2(CCN(C(=O)/C=C/c3ccccc3)CC2)C(=O)NCCSSCCC(=O)N2CCC[C@H]2C(=O)N[C@H]1Cc1c[nH]c2ccccc12 [X B1 W D6 Acid 91] ([Mpa]PW[Api](X1)-Cysteamide; disulfide 1-C)
Result: 0.14

---

system: MDM2 (Homo sapiens, UniProt Q00987)
methodNotes: MDM2 binding screen of Libraries 3 and 4: displacement of fluorescent probe F-M8 at 750 nM macrocycle
cond: Panel b, Library 3: 63 scaffolds combinatorially acylated with 15 carboxylic acids at 30 picomole scale; displacement of fluorescent peptide probe; macrocycle 750 nM
experimentalEndpoint: fraction of fluorescent probe displaced
Please give the numeric answer without any surrounding text.

Task: For the compound Cn1cc(C[C@@H]2NC(=O)[C@H](CNC(=O)c3ccc(Cl)s3)NC(=O)[C@H]3CCCN(C3)C(=O)CCSSCCNC2=O)c2ccccc21 [X-Nip-Dap-Me-Trp + Acid 14] , what fraction of fluorescent probe displaced is on record?
Result: 0.028

Task: Request the reported fraction of fluorescent probe displaced associated with CN1C(=O)CN(CCNC(=O)c2ccc(Cl)s2)C(=O)C2(CC2)CNC(=O)CCSSCCNC(=O)[C@@H]1Cc1c[nH]c2ccccc12 [X-Amcp-N-Aeg-NMe-Trp + Acid 14]
Result: -0.012

Task: Which fraction of fluorescent probe displaced value is on record for Cn1cc(C[C@@H]2NC(=O)CN(CCNC(=O)c3ccc(Cl)s3)C(=O)[C@H]3CCCN(C3)C(=O)CCSSCCNC2=O)c2ccccc21 [X-Nip-N-Aeg-Me-Trp + Acid 14] ?
Result: -0.012

Task: Endpoint output: fraction of fluorescent probe displaced of CN1C(=O)[C@@H](CNC(=O)/C=C/c2ccc3ccccc3c2)NC(=O)[C@@H]2CN(CCO2)C(=O)CCSSCCNC(=O)[C@@H]1Cc1c[nH]c2ccccc12 [X-Cop-D-Dap-NMe-Trp + Acid 112] . Value?
Result: 0.035

Task: So what's the measured fraction of fluorescent probe displaced for this one? Cn1cc(C[C@@H]2NC(=O)CN(CCNC(=O)c3ccc(Cl)cc3)C(=O)[C@@H]3CN(CCO3)C(=O)CCSSCCNC2=O)c2ccccc21 [X-Cop-N-Aeg-Me-Trp + Acid 25]
Result: 0.028

Task: I have this compound here, O=C(O)c1ccc2ccccc2c1 [Acid 107] , and I need its recorded fraction of fluorescent probe displaced.
Result: -0.002
